Below is a list of entries, each paired with its recorded ELISA HSA (RLU) value.
Biological target: human serum albumin (human) (UniProt P02768)
Sequence (P02768 25-609 limits assumed): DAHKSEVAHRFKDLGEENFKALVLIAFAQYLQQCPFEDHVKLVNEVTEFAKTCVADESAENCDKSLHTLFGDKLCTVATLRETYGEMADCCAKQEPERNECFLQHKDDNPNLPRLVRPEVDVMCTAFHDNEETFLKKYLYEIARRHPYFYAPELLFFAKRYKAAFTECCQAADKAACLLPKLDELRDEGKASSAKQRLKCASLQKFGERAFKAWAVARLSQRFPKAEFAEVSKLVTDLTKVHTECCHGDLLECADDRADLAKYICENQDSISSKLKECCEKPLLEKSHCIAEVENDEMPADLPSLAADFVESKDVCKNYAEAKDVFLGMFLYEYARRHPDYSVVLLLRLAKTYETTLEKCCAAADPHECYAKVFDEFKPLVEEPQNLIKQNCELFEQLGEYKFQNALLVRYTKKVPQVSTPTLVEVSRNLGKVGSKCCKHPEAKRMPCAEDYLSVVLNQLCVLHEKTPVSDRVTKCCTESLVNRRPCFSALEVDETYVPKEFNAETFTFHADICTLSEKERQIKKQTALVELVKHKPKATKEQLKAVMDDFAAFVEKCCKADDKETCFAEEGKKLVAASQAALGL
Assay: ELISA, negative control HSA
Express your answer in RLU, writing the number without its unit.

Check out these entries, answers already filled in.
Prompt: Need ELISA HSA (RLU) of ISOP193HR9P1A5 (designed binder, not shown: small tags and cut ends) LPAPKNLVVSRVTEDSARLSWTAPDAAFDSFDIYYYELRLGGEAIVLTVPGSERSYDLTGLKPGTEYLVTIYGVKGCGYSAPLSAIVTT , thanks.
Completion: 2080

Prompt: Need ELISA HSA (RLU) of ISOP193FR9P1G7 (designed binder, not shown: small tags and cut ends) LPAPKNLVVSRVTEDSARLSWTAPDAAFDSFHIHYLEGEWGGEAIVLTVPGSERSYDLTGLKPGTEYLVTIYGVKGCDWSDPLSAIFTT , thanks.
Completion: 11000

Prompt: Need ELISA HSA (RLU) of ISOP193HR9P1C7 (designed binder, not shown: small tags and cut ends) LPAPKNLVVSRVTEDSARLSWTAPDAAFDSFEIYYLELDSDGEAIVLTVPGSERSYDLTGLKPGTEYIVTIYGVKVCTGSRPLSAIFTT , thanks.
Completion: 10000

Prompt: Need ELISA HSA (RLU) of ISOP193HR9P1D8 (designed binder, not shown: small tags and cut ends) LPAPKNLVVSRVTEDSARLSWTAPDAAFDSFDIYYLESGRDGEAIVLTVPGSERSYDLTGLKPGTEYLVSIYGVKGCGYSDPLSAIFTT , thanks.
Completion: 2640

Prompt: Need ELISA HSA (RLU) of ISOP193HR9P1D11 (designed binder, not shown: small tags and cut ends) LPAPKNLVVSRVTEDSARLSWTAPDAAFDSFDIYYYELRLGGEAIVLTVPGSERSYDLTGLKPGTEYLVTIYGVKVCEQSYPLSAIFTT , thanks.
Completion: 6240

New cases:
Prompt: Need ELISA HSA (RLU) of ISOP193HR9P1A11 (designed binder, not shown: small tags and cut ends) LPAPKNLVVSRVTEDSARLSWTAPDAAFDSFEIYYLEGGRGEAIVLTVPGSERSYDLTGLKPGTEYLVTIYGVKCGWASNPLSAIFTT , thanks.
Completion: 4240

Prompt: Need ELISA HSA (RLU) of ISOP193HR9P1A6 (designed binder, not shown: small tags and cut ends) LPAPKNLVVSRVTEDSARLSWTAPDAAFDSFDIYYYELRLGGEAIVLTVPGSERSYDLTGLKPGTEYLVSIYGVKGCGYSDPLSAIFTT , thanks.
Completion: 5120

Prompt: Need ELISA HSA (RLU) of ISOP193HR9P1E2 (designed binder, not shown: small tags and cut ends) LPAPKNLVVSRVTEDSARLSWTAPDAAFDSFEIYYLEWCSGGEAIVLTVPGSERSYDLTGLKPGTEYLVTIYGVKGCAASDPLSAIFTT , thanks.
Completion: 3840

Prompt: Need ELISA HSA (RLU) of ISOP193FR9P1D7 (designed binder, not shown: small tags and cut ends) LPAPKNLVVSRVTEDSARLSWTAPDAAFDSFEIYYAEYFKNGEAIVLTVPGSERSYDLTGLKPGTEYLVTIYGVKGCDWSDPLSAISTT , thanks.
Completion: 2640

Prompt: Need ELISA HSA (RLU) of ISOP193FR9P1G9 (designed binder, not shown: small tags and cut ends) LPAPKNLFVSRVTEDSARLSWTAPDAAFDSFQIYYREQWWDGEAIVLTVPGSERSYDLTGLKPGTEYLVTIYGVKGCDWSDPLSAIFTT , thanks.
Completion: 6800
